Here, each record is paired with measured T/C data.
test system: P388 leukemia ip, CD2F1 mice, survival T/C; assay: NCI In Vivo Anticancer Drug Screen. Data for tumor model P388 Leukemia (intraperitoneal) in CD2F1 (CDF1) mice; conditions: endpoint: median survival time; dose: 200.0 mg/kg/injection; schedule: Q01DX009 (ip); vehicle: Klucel (hydroxypropylcellulose) (HPC); higher = longer survival
Inconclusive results and toxic doses are left out.

{"molecule": "Clc1ccc(N=Cc2cccs2)cc1Cl", "T/C": "110 % of control"}
{"molecule": "COc1cc(N2C(=O)CSC2=S)cc(OC)c1OC", "T/C": "101 % of control"}
{"molecule": "C#CC(CC)OC(=O)c1ccc([N+](=O)[O-])cc1 (centres undefined)", "T/C": "91 % of control"}
{"molecule": "CCOC([O-])=N/C(=N/[n+]1ccccc1)c1ccccc1", "T/C": "100 % of control"}
{"molecule": "CC(C)(C)C(=O)OC/C=C\\COC(=O)c1ccccc1", "T/C": "111 % of control"}
{"molecule": "COc1ccccc1N1C(=O)C(=O)C(C(C)=O)C1=O (centres undefined)", "T/C": "108 % of control"}
{"molecule": "O=S(=O)(Cc1ccccc1)CS(=O)(=O)Cc1ccccc1", "T/C": "103 % of control"}
{"molecule": "CNc1nc2c(s1)c1c(O)c3c(O)c(C)c4c(c32)C(=O)C(C)(O/C=C/C(OC)C(C)C(OC(C)=O)C(C)C(O)C(C)C(O)C(C)/C=C/C=C(/C)C(=O)N1)O4 (centres undefined)", "T/C": "100 % of control"}
{"molecule": "CCCCCCSc1nc2ccc(N=Cc3ccccc3O)cc2s1", "T/C": "90 % of control"}
